Reported EC50 by item:
# MEASURED_ON: Prostaglandin E2 receptor EP4 subtype (Oryctolagus cuniculus)
# Sequence (Q28691 whole entry): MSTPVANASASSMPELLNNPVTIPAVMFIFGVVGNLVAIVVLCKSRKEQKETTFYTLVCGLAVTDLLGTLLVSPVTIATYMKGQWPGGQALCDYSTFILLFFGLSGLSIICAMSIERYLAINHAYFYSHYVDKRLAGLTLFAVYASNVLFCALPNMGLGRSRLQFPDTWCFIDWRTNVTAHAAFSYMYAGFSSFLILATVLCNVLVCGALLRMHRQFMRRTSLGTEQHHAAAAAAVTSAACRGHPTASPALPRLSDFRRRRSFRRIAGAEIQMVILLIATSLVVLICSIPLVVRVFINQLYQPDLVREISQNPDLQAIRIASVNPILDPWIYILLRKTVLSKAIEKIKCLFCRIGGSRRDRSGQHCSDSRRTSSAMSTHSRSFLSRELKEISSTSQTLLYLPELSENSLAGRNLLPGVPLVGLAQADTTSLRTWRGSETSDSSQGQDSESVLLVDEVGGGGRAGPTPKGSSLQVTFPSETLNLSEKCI
# MEASUREMENT_PROTOCOL: Agonist activity at rabbit EP4 receptor assessed as relaxation of Kcl-induced tissue contraction by isometric transducer method
# Format: functional

- STRUCTURE_AS_SMILES: "O=C(O)CCc1cccc2c1O[C@H]1C[C@@H](O)[C@H](/C=C/[C@@H](O)CC3CCCCC3)[C@@H]21"
  READING_UNIT: "nM"
  EC50: 5.7
- STRUCTURE_AS_SMILES: "O[C@H](/C=C/[C@@H]1[C@H]2c3cccc(CCc4nnn[nH]4)c3O[C@H]2C[C@H]1O)CC1CCCCC1"
  READING_UNIT: "nM"
  EC50: 2.6

Data origin: ChEMBL document CHEMBL1926534
